# Experimental setup: in methanol, 308.15 K
Readout kind: solubility (mole fraction)

INSERT INTO results (molecule_smiles, numeric_result) VALUES
  ('Cn1nccc1O', 0.234);

----------
# Experimental setup: in ethanol, 288.15 K
Readout kind: solubility (mole fraction)

INSERT INTO assay_data (molecule_smiles, readout_kind, result) VALUES
  ('Cn1nccc1O', 'solubility (mole fraction)', 0.112);

----------
# Experimental setup: in sec-butanol, 288.15 K
Readout kind: solubility (mole fraction)

INSERT INTO assay_data (molecule_smiles, readout_kind, numeric_result) VALUES
  ('Cn1nccc1O', 'solubility (mole fraction)', 0.117);

----------
# Experimental setup: in methanol, 318.15 K
Readout kind: solubility (mole fraction)

INSERT INTO results (molecule_smiles, readout_kind, result) VALUES
  ('Cn1nccc1O', 'solubility (mole fraction)', 0.308);

----------
# Experimental setup: in n-butanol, 308.15 K
Readout kind: solubility (mole fraction)

INSERT INTO measurements (molecule_smiles, numeric_result) VALUES
  ('Cn1nccc1O', 0.177);

----------
# Experimental setup: in sec-butanol, 313.15 K
Readout kind: solubility (mole fraction)

INSERT INTO measurements (molecule_smiles, readout_kind, numeric_result) VALUES
  ('Cn1nccc1O', 'solubility (mole fraction)', 0.219);

----------
# Experimental setup: in ethanol, 278.15 K
Readout kind: solubility (mole fraction)

INSERT INTO measurements (molecule_smiles, readout_kind, numeric_result) VALUES
  ('Cn1nccc1O', 'solubility (mole fraction)', 0.0822);

----------
# Experimental setup: in sec-butanol, 298.15 K
Readout kind: solubility (mole fraction)

INSERT INTO results (molecule_smiles, readout_kind, numeric_result) VALUES
  ('Cn1nccc1O', 'solubility (mole fraction)', 0.154);

----------
# Experimental setup: in n-butanol, 313.15 K
Readout kind: solubility (mole fraction)

INSERT INTO measurements (molecule_smiles, numeric_result) VALUES
  ('Cn1nccc1O', 0.2);

----------
# Experimental setup: in methanol, 298.15 K
Readout kind: solubility (mole fraction)

INSERT INTO assay_data (molecule_smiles, result) VALUES
  ('Cn1nccc1O', 0.172);

----------
# Experimental setup: in sec-butanol, 318.15 K
Readout kind: solubility (mole fraction)

INSERT INTO results (molecule_smiles, numeric_result) VALUES
  ('Cn1nccc1O', 0.251);

----------
# Experimental setup: in n-propanol, 298.15 K
Readout kind: solubility (mole fraction)

INSERT INTO measurements (molecule_smiles, readout_kind, numeric_result) VALUES
  ('Cn1nccc1O', 'solubility (mole fraction)', 0.143);

----------
# Experimental setup: in n-pentyl acetate, 303.15 K
Readout kind: solubility (mole fraction)

INSERT INTO results (molecule_smiles, numeric_result) VALUES
  ('Cn1nccc1O', 0.0138);

----------
# Experimental setup: in n-propanol, 293.15 K
Readout kind: solubility (mole fraction)

INSERT INTO assay_data (molecule_smiles, numeric_result) VALUES
  ('Cn1nccc1O', 0.127);

----------
# Experimental setup: in n-propanol, 288.15 K
Readout kind: solubility (mole fraction)

INSERT INTO results (molecule_smiles, numeric_result) VALUES
  ('Cn1nccc1O', 0.109);

----------
# Experimental setup: in ethyl acetate, 303.15 K
Readout kind: solubility (mole fraction)

INSERT INTO results (molecule_smiles, numeric_result) VALUES
  ('Cn1nccc1O', 0.00603);

----------
# Experimental setup: in isopropanol, 278.15 K
Readout kind: solubility (mole fraction)

INSERT INTO results (molecule_smiles, readout_kind, numeric_result) VALUES
  ('Cn1nccc1O', 'solubility (mole fraction)', 0.079);

----------
# Experimental setup: in isopropanol, 313.15 K
Readout kind: solubility (mole fraction)

INSERT INTO results (molecule_smiles, readout_kind, result) VALUES
  ('Cn1nccc1O', 'solubility (mole fraction)', 0.209);

----------
# Experimental setup: in n-pentyl acetate, 283.15 K
Readout kind: solubility (mole fraction)

INSERT INTO assay_data (molecule_smiles, numeric_result) VALUES
  ('Cn1nccc1O', 0.00553);

----------
# Experimental setup: in methyl acetate, 288.15 K
Readout kind: solubility (mole fraction)

INSERT INTO measurements (molecule_smiles, numeric_result) VALUES
  ('Cn1nccc1O', 0.0109);

----------
# Experimental setup: in n-propanol, 318.15 K
Readout kind: solubility (mole fraction)

INSERT INTO measurements (molecule_smiles, numeric_result) VALUES
  ('Cn1nccc1O', 0.245);

----------
# Experimental setup: in n-propyl acetate, 283.15 K
Readout kind: solubility (mole fraction)

INSERT INTO results (molecule_smiles, result) VALUES
  ('Cn1nccc1O', 0.0005);

----------
# Experimental setup: in isobutanol, 293.15 K
Readout kind: solubility (mole fraction)

INSERT INTO assay_data (molecule_smiles, readout_kind, numeric_result) VALUES
  ('Cn1nccc1O', 'solubility (mole fraction)', 0.161);

----------
# Experimental setup: in ethanol, 293.15 K
Readout kind: solubility (mole fraction)

INSERT INTO measurements (molecule_smiles, numeric_result) VALUES
  ('Cn1nccc1O', 0.129);

----------
# Experimental setup: in n-propanol, 278.15 K
Readout kind: solubility (mole fraction)

INSERT INTO results (molecule_smiles, numeric_result) VALUES
  ('Cn1nccc1O', 0.0801);

----------
# Experimental setup: in methyl acetate, 318.15 K
Readout kind: solubility (mole fraction)

INSERT INTO assay_data (molecule_smiles, numeric_result) VALUES
  ('Cn1nccc1O', 0.0312);

----------
# Experimental setup: in isopropanol, 308.15 K
Readout kind: solubility (mole fraction)

INSERT INTO results (molecule_smiles, numeric_result) VALUES
  ('Cn1nccc1O', 0.186);

----------
# Experimental setup: in ethanol, 303.15 K
Readout kind: solubility (mole fraction)

INSERT INTO measurements (molecule_smiles, numeric_result) VALUES
  ('Cn1nccc1O', 0.171);

----------
# Experimental setup: in methyl acetate, 278.15 K
Readout kind: solubility (mole fraction)

INSERT INTO assay_data (molecule_smiles, numeric_result) VALUES
  ('Cn1nccc1O', 0.00741);

----------
# Experimental setup: in ethyl acetate, 293.15 K
Readout kind: solubility (mole fraction)

INSERT INTO measurements (molecule_smiles, result) VALUES
  ('Cn1nccc1O', 0.00222);

----------
# Experimental setup: in sec-butanol, 278.15 K
Readout kind: solubility (mole fraction)

INSERT INTO measurements (molecule_smiles, numeric_result) VALUES
  ('Cn1nccc1O', 0.0889);

----------
# Experimental setup: in n-pentyl acetate, 278.15 K
Readout kind: solubility (mole fraction)

INSERT INTO assay_data (molecule_smiles, readout_kind, numeric_result) VALUES
  ('Cn1nccc1O', 'solubility (mole fraction)', 0.00428);
